- Tested on: RPMI-8226 leukemia
- ASSAY: NCI-60 one-dose screen, 48 h
- CONDITIONS: 10 µM unless noted
This is part of a sample that, as a whole, favours compounds with a hit. Of some 83,000 tested, about 20% had one in any assay. Activity calls are given as the source filed them. How the source made its calls: active means growth percent below 10; inactive means the rest.
Lab note: assign the record to one of active, inactive

[in] Could you please tell me the result logged for "Nc1ccc2c(c1)Cc1cc(NC(=O)C(F)(F)F)ccc1-2" in this assay?
[out] inactive

[in] Write down the call the test reported for this compound. Item: "O=C1/C(=C/c2cccc(OCc3ccccc3)c2)Oc2cc(OCCN3CCCCC3)ccc21"
[out] inactive

[in] Per the assay record, what outcome was assigned to "COc1ccc(-c2cc(-c3ccccc3)nc(SCCCCCC(=O)NO)n2)cc1" ?
[out] inactive

[in] Field: outcome | Entry: "COc1cc2c(O)n(CCCN3CCOCC3)c3c4cnc5cccc(c(=O)c3c2cc1OC)c54"
[out] inactive

[in] Check the results log: what was the call for "C=C(C)[C@@H]1CC[C@]2(C(=O)NCCNCCNCCN)CC[C@]3(C)[C@H](CC[C@@H]4[C@@]5(C)CC[C@H](O)C(C)(C)[C@@H]5CC[C@]43C)[C@@H]12" ?
[out] active

[in] Could you kindly confirm the outcome this assay logged for "COc1ccc(/C=C2\N=C(Nc3ccccc3)N(NC(=O)c3ccccn3)C2=O)cc1" ?
[out] inactive

[in] Check the results log: what was the call for "C1=C[C@H]2O[C@@H]1c1ccc3[nH]ccc3c12" ?
[out] inactive

[in] Recorded call for "C=C(C)[C@@H]1CC[C@]2(C(N)=O)CC[C@]3(C)[C@H](CC[C@@H]4[C@@]5(C)C/C(=C/c6cccnc6)C(=O)C(C)(C)[C@@H]5CC[C@]43C)[C@@H]12" ?
[out] active

[in] // outcome(item) with item = C#CCOc1ccc(C2=NN(CC3CC3)C3N=C(Cl)c4ncn(CC5CC5)c4N23)cc1OCC#C (centres undefined)
[out] inactive

[in] Please indicate how the test categorized O=C1/C(=C\c2cn(CC(O)CN3CCCCC3)c3ccccc23)c2ccccc2N1c1c(Cl)cccc1Cl (centres undefined) .
[out] active

[in] Dear all, I need the recorded test outcome for "COc1ccc(-c2cc(-c3ccccc3)nc(NCCNc3ccnc4cc(Cl)ccc34)n2)cc1" , thank you.
[out] active

[in] Kindly provide the recorded test outcome for the following compound: CCOC(=O)c1nn(C2CCCCO2)c2ccc(NC(=O)CN3CCCC3)cc12 (centres undefined)
[out] inactive

[in] // return assay outcome for "COc1ccc(/C=C(/C2=NCCN2)n2ccc3ccccc32)cc1"
[out] inactive

[in] Returns: the outcome recorded for "C=C(C)[C@@H]1CC[C@]2(C)[C@H](CC=C3[C@@H]4[C@@H](C)[C@H](C)CC[C@]4(C(N)=O)CC[C@]32C)[C@@]1(C)CCC#N" in this assay.
[out] active

[in] Call for entry "Cc1cccc([N+](=O)[O-])c1I" :
[out] inactive

[in] # lookup: test call for N#Cc1ccc(-c2ccc(COc3ccc(CC4SC(=O)NC4=O)cc3)cc2)cc1 (centres undefined)
[out] inactive

[in] # outcome recorded in this test, key = "Cn1cc(-c2noc(-c3cn(C)c4ncccc34)n2)c2cc(Cl)ccc21"
[out] inactive

[in] What did the test return for CCCCN(CCCC)CC(O)c1ccc(OCc2ccccc2)c2ccccc12 (centres undefined) ?
[out] inactive

[in] State the result this test recorded for "C=CCCCCOc1ccccc1-c1cnc(OCCCCC=C)n1C" .
[out] inactive
